Where do these numbers come from? They come from paper PMC12736535.

Molecular target: BChE (Homo sapiens, UniProt P06276)
Sequence (P06276 29-602, species assumed): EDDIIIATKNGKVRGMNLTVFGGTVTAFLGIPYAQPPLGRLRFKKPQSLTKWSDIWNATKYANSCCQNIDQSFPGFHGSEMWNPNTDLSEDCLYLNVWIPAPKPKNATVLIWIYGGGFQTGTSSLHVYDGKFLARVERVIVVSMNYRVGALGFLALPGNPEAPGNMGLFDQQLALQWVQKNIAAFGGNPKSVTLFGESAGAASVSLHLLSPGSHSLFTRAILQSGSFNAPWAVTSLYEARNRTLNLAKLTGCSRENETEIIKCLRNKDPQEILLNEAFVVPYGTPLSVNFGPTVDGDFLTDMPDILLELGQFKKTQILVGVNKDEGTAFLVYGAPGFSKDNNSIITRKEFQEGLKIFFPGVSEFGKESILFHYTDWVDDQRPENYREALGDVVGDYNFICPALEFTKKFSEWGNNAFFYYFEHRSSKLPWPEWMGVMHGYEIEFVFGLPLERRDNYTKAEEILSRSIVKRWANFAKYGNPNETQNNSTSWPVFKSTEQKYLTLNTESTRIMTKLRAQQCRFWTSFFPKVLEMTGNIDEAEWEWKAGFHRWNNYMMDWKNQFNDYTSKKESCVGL
Assay: BChE inhibition, Ellman's colorimetric method
Assay type: biochemical
Settings: increasing concentrations of inhibitor
Observation type: pIC50
// field semantics: pIC50 = negative decimal log of concentration (mol/L)

BChE (Homo sapiens, UniProt P06276) assay, molecule "CCCNNC(=O)c1ccc(S(=O)(=O)n2ccc3cc(OCCCN4CCCCC4)ccc32)cc1" , recorded pIC50 = 5.08

====

Molecular target: recombinant hMAO-B (Homo sapiens)
Sequence (P27338 1-520): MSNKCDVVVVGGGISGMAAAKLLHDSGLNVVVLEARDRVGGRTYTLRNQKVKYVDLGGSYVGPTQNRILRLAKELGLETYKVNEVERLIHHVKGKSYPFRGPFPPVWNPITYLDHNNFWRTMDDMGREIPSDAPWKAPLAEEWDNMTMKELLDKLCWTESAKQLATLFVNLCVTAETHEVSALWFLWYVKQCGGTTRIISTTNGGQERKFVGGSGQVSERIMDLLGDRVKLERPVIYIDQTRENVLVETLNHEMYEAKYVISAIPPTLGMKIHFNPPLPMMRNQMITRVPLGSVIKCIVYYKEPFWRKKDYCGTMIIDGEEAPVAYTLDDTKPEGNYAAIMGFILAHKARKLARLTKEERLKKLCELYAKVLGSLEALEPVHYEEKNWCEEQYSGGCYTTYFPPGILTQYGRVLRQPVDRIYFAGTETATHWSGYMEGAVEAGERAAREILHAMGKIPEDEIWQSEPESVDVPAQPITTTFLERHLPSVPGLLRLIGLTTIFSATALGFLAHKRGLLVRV
Assay: MAO-B inhibition assay
Conditions: increasing concentrations of inhibitor
Observation type: IC50 (µM)
Report the figure in µM without appending any unit label.

Value of measured IC50 for the entry CCCNNC(=O)c1ccc(S(=O)(=O)n2ccc3cc(OCCCN4CCCCC4)ccc32)cc1 [FRB44] : 3.16
